Reported hEphB1-SEAP-: absorbance at 450 nm, percentage with respect to hEphA4-SEAP-His as 100% is given for each of the following molecules.
- target under test: T1, human EphB1 (Homo sapiens, UniProt P54762)
- T1 construct: a protein of the extracellular region of each human Eph receptor fused with the SEAP protein and the His tag; made in house; host or cells: Expi293F cells (culture supernatant)
- T1 sequence (P54762 18-540 limits assumed): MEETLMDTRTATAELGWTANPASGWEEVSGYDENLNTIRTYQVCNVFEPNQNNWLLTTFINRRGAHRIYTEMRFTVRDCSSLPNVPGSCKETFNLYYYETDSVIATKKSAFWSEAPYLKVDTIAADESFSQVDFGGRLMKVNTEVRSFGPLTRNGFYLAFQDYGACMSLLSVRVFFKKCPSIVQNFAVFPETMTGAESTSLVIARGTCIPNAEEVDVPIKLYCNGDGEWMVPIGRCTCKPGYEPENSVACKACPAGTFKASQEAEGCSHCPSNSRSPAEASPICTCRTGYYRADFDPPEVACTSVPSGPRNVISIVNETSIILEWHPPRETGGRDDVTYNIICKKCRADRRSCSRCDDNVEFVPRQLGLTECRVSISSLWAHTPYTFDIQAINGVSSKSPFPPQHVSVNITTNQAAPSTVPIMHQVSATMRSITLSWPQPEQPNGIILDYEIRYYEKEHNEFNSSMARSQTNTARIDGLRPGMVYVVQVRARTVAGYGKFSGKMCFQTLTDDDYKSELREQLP
- test: Selectivity ELISA of humanized antibodies for human Eph receptor
- Assay type: binding
- cond: coated protein 1 nM
The answer is to be given in %; state only the numeric part.

151 (antibody, V domains shown, synthetic humanized antibody heavy chain variable region sequence; synthetic humanized antibody light chain variable region sequence) VH: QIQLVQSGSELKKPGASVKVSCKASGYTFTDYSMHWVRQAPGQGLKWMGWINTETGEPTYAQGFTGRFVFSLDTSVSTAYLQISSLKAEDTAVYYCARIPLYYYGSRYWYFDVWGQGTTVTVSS VL: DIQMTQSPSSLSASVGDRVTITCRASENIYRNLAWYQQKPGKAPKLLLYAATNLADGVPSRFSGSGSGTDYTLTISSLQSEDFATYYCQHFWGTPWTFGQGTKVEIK | 6.8

query: I would be grateful if you could share the reported hEphB1-SEAP-: absorbance at 450 nm, percentage with respect to hEphA4-SEAP-His as 100% for 144 (antibody, V domains shown, synthetic humanized antibody heavy chain variable region sequence; synthetic humanized antibody light chain variable region sequence) VH: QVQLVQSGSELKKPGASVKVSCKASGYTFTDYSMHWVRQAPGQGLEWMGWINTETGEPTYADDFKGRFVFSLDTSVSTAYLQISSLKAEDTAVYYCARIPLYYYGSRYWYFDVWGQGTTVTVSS VL: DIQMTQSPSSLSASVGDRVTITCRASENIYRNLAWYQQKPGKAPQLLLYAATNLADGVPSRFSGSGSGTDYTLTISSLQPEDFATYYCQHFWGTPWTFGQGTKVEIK .
result: 5.7

query: Find the recorded hEphB1-SEAP-: absorbance at 450 nm, percentage with respect to hEphA4-SEAP-His as 100% belonging to 138 (antibody, V domains shown, synthetic humanized antibody heavy chain variable region sequence; synthetic humanized antibody light chain variable region sequence) VH: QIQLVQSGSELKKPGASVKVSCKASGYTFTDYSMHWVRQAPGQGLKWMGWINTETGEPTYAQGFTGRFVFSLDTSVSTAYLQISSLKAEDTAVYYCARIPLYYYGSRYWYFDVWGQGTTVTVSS VL: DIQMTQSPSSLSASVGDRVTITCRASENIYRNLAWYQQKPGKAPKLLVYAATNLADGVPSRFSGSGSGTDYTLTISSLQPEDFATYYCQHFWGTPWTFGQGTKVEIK and report it.
result: 5.1

query: What value of hEphB1-SEAP-: absorbance at 450 nm, percentage with respect to hEphA4-SEAP-His as 100% has been reported for the following molecule? 93 (antibody, V domains shown, constant regions without entry; synthetic humanized antibody light chain variable region sequence; synthetic humanized antibody heavy chain variable region sequence) VL: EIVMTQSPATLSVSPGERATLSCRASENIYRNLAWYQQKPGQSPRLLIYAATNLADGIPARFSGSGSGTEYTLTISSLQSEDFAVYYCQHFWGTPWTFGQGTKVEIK VH: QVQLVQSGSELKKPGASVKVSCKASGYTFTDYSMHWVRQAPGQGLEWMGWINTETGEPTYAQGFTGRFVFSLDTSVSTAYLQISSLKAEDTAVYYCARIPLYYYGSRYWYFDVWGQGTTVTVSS
result: 5.0
